Test: yeast display, Sf9 membrane polyspecificity reagent, FACS + sequencing; frameworks hold sequencing errors

>  <chain-sequence>
QVQLVESGGGLVQAGGSLRLSCAASGFTFRRYVMGWYRQAPGKERELVAAISQSGGSTYYADSVKGRFTISRDNAMNTVYLQMNSLKPEDTAVYYCAAAKVPYGWAQSDYWGQGTQVTVSS

>  <polyreactivity (PSR sort gate)>
high polyreactivity

$$$$
>  <chain-sequence>
QVQLVESGGGLVQAGGSLRLSCAASGIIFRRYAMGWYSQAPVKERELVAAITGSGGSPYYADSVKGRFTISRDNAKNTVYLQMNSLKPEDTAVYYCAAQSVLRFASSRYNSWGQGTQVTVSS

>  <polyreactivity (PSR sort gate)>
high polyreactivity

$$$$
